- METHOD_NOTES: qHTS RealTime-Glo MT Cell Viability Assay in HEK293 cells - 16 hour (AID 1224872); further: nearly all actives have a fitted effect of over 50% in size; further: potency means the concentration at half of the fitted maximal effect
- CONDITION_INFO: RealTime-Glo luminescence; series mostly up to 76.8 µM
Results filed as inconclusive are left out. Activity calls are given as the source filed them. The call rests on the fitted dose curve; in most records, active means well fitted cell-killing curve with a large enough effect in the repeat runs; inconclusive means weak or mixed curves, or effect the other way; inactive means flat fitted curve, though single readings scatter.
MEASURED_PARAMETER: Potency

>  <MOLECULE>
CCCC(=O)Cl

>  <MEASURED_PARAMETER>
Potency

>  <MEASURED_RESULT>
inactive

$$$$
>  <MOLECULE>
NC(=O)C(Cl)(Cl)Cl

>  <MEASURED_PARAMETER>
Potency

>  <MEASURED_RESULT>
inactive

$$$$
>  <MOLECULE>
Cn1cc[n+](C)c1 (tested in a mixture with another compound)

>  <MEASURED_PARAMETER>
Potency

>  <MEASURED_RESULT>
inactive

$$$$
>  <MOLECULE>
C/C=C/C=O

>  <MEASURED_PARAMETER>
Potency

>  <MEASURED_RESULT>
inactive

$$$$
>  <MOLECULE>
CC(=O)NC1CCSC1=O (stereo unspecified)

>  <MEASURED_PARAMETER>
Potency

>  <MEASURED_RESULT>
inactive

$$$$
>  <MOLECULE>
O=C(N[C@H](c1ccccc1)[C@@H]1CN2CCC1CC2)c1c(Cl)ccc(C(F)(F)F)c1Cl

>  <MEASURED_PARAMETER>
Potency

>  <MEASURED_RESULT>
78.8 µM (active)

$$$$
>  <MOLECULE>
C[C@]12CC[C@H]3[C@@H](CCC4=CC(=O)CC[C@@H]43)[C@@H]1CC[C@@H]2OC(=O)CCC1CCCCC1

>  <MEASURED_PARAMETER>
Potency

>  <MEASURED_RESULT>
inactive

$$$$
>  <MOLECULE>
CCCCCCCCOC(=O)c1ccc(C(=O)OCCCCCCCC)c(C(=O)OCCCCCCCC)c1

>  <MEASURED_PARAMETER>
Potency

>  <MEASURED_RESULT>
inactive

$$$$
>  <MOLECULE>
CC(C)O.CC(C)O.OCCN(CCO)CCO.OCCN(CCO)CCO.[Ti]

>  <MEASURED_PARAMETER>
Potency

>  <MEASURED_RESULT>
inactive

$$$$
>  <MOLECULE>
Cc1ccccc1C(=O)Nc1cccc(OC(C)C)c1

>  <MEASURED_PARAMETER>
Potency

>  <MEASURED_RESULT>
inactive

$$$$
>  <MOLECULE>
OC(c1ccc(Cl)cc1)(c1ccc(Cl)cc1)c1cccnc1

>  <MEASURED_PARAMETER>
Potency

>  <MEASURED_RESULT>
38.9 µM (active)

$$$$
>  <MOLECULE>
CCCCC(O)(Cn1cncn1)c1ccc(Cl)cc1Cl (stereo unspecified)

>  <MEASURED_PARAMETER>
Potency

>  <MEASURED_RESULT>
43.6 µM (active)

$$$$
>  <MOLECULE>
NC(=O)CI

>  <MEASURED_PARAMETER>
Potency

>  <MEASURED_RESULT>
inactive

$$$$
>  <MOLECULE>
C=CC(=O)OCC(C)O (stereo unspecified)

>  <MEASURED_PARAMETER>
Potency

>  <MEASURED_RESULT>
inactive

$$$$
>  <MOLECULE>
CCOP(O)OCC

>  <MEASURED_PARAMETER>
Potency

>  <MEASURED_RESULT>
inactive

$$$$
>  <MOLECULE>
C=CC(=O)OCCCCO

>  <MEASURED_PARAMETER>
Potency

>  <MEASURED_RESULT>
inactive

$$$$
